Entries and their normalized MFI
# targetOfAssay: T1, huIL-17RA-FLAG-polyHis (human, UniProt Q96F46 33-320)
# T1 construct: also called IL-17RA-FLAG-pHis; wild-type IL-17RA
# experimentDescription: binning; IL-17RA held by bead mAb K

AMH8/AML8 (antibody, IgG2, V domains shown, human mAb from IgG2 XenoMouse mice; also called AM-8; antibody C) VH: QVQLVQSGAEVKKPGASVKVSCKASGNTFTGYGISWVRQAPGQGLEWMGWISAYNGNTNYAQNLQGRVTMTTDTSTSTAYMELRSLRSDDTAVYYCARRDYDILTGYYNGFDPWGQGTLVTVSS VL: DIQMTQSPSSLSASVGDRVTITCRASQGIRNDLGWYQQKPGKAPKRLIYAASSLQSGVPSRFSGSGSGTEFTLTISSLQPEDFATYYCLQHKSYPLTFGGGTKVEIK ... 8220

Now consider the entry below.
Sure, the documented normalized MFI for AMH6/AML6 (antibody, IgG2, V domains shown, human mAb from IgG2 XenoMouse mice; also called AM-6; antibody E) VH: QVQLVQSGAEVKKPGASVKVSCKASGYTLTRYGISWVRQAPGQGLEWMGWISAYNGNTNYAQKLQGRVTMTTDTSTSTAYMELRSLRSDDTAVYYCARRDYDILTGYYNGFDPWGQGTLVTVSS VL: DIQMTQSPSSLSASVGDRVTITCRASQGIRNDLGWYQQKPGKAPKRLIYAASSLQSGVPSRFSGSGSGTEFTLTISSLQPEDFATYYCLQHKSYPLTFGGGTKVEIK is 5600
